Taken from patent US4886812A.

# System: presynaptic dopamine receptors
# Protocol: Inhibition of the exploratory activity of mice (infra-red light barrier cages)
# Format: in vivo
# Measurement Context: 10 mg/kg s.c.; measurement of exploration 75 minutes after administration
Measured Parameter: Inhibition of activity in percent compared with controls treated with common salt

[
  {
    "Compound": "CCCNC1CCc2nc(N)sc2C1.Cl.Cl (stereo not shown) [Substance C]",
    "Recorded Measurement": "20%"
  },
  {
    "Compound": "C=CCN(Cc1ccc(Cl)cc1)C1CCc2nc(N)sc2C1 (stereo not shown) [Substance E]",
    "Recorded Measurement": "56%"
  },
  {
    "Compound": "C=CCNc1nc2c(s1)CC(N(C)C)CC2.Cl.Cl (stereo not shown) [Substance D]",
    "Recorded Measurement": "76%"
  },
  {
    "Compound": "C=CCN(CC=C)C1CCc2nc(N)sc2C1.Cl.Cl (stereo not shown) [Substance F]",
    "Recorded Measurement": "60%"
  }
]
